Experiment: Time taken to achieve maximum concentration in male BALB/c mice administered with 35 mg/kg, po
Format: ADME, organism-based
Design: dose 35 mg/kg, route oral
Settings: mouse, in vivo
observation-type: Tmax (h)
Give bare numbers, in h.

The recorded Tmax for entry CCCc1c(OCCCOc2ccc3c(ccn3CC(=O)[O-])c2)ccc2c(C(F)(F)F)noc12.[Na+] equals 4.7

----------
Field: IC50. Provide a value for each of the compounds that follow.
Molecular target: Peroxisome proliferator-activated receptor gamma (Homo sapiens)
Sequence (P37231 whole entry): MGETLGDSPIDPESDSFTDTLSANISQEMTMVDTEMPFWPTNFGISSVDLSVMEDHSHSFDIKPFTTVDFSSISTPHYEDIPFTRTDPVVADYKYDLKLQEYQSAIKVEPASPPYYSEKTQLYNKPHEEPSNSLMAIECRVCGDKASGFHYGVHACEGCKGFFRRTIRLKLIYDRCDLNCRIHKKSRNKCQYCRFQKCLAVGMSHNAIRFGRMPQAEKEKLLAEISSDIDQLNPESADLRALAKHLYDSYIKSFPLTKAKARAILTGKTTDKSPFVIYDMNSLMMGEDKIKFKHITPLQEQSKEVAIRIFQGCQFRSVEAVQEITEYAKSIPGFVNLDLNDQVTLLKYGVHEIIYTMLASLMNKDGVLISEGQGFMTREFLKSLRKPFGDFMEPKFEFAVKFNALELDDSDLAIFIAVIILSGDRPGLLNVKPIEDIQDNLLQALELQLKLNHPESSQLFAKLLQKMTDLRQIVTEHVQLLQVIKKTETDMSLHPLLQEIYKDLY
Numbers only, in nM.

• CCCc1c(OCCCOc2cccc3c2ccn3C(CC)C(=O)O)ccc2c(C(F)(F)F)noc12 (stereo not given) = 1280
• CCCc1c(OCC(C)COc2cccc3c2ccn3CC(=O)O)ccc2c(C(F)(F)F)noc12 (stereo not given) = 1300
• CCCc1c(OCCCCCOc2cccc3c2ccn3CC(=O)O)ccc2c(C(F)(F)F)noc12 = 1780

Answer for every listed entry: what is its IC50? The entries follow.
1. CCCc1c(OCCCOc2cccc3c2ccn3CC(=O)O)ccc2cc(-c3ccccc3)[nH]c12
2. CCCc1c(OCCOc2ccc3c(ccn3CC(=O)O)c2)ccc2c(C(F)(F)F)noc12
3. CCCc1c(OCCCCCOc2ccc3c(ccn3CC(=O)O)c2)ccc2c(C(F)(F)F)noc12
4. CCCc1c(OCCCOc2ccc3c(ccn3CC(=O)O)c2)ccc2c(C#N)c[nH]c12
5. CCCc1c(OCCCOc2ccc3c(ccn3CC(=O)O)c2)ccc2c(C(=O)C(F)(F)F)c[nH]c12
6. CCCc1c(OCCCOc2ccc3ccn(CC(=O)O)c3c2)ccc2c(C(F)(F)F)noc12
7. CCCc1c(OCCCOc2ccc3c(ccn3CC(=O)O)c2)ccc2c(-c3ccccc3)noc12

1680
422
1050
759
2410
1050
120
